- System: Rattus norvegicus
- EXPERIMENTAL_DETAILS: Cmax in Hanover Wistar rat assessed as 5-(6-chloro-2-fluoro-3-((5-methyl-6-oxo-1,6-dihydropyridazin-3-yl)methyl)phenoxy)isophthalonitrile level at 50 mg/kg, po
- Type: ADME, organism-based
- Design: dose 50 mg/kg, route oral
- ASSAY_SETUP: in vivo
Hi there, I'd appreciate the recorded Cmax for every entry that follows.
Expressed in µM, but write only the number.

In plain terms, Cc1cc(Cc2ccc(Cl)c(Oc3cc(C#N)cc(C#N)c3)c2F)nn(COC(=O)CN)c1=O.Cl has a documented Cmax of 6.3

In plain terms, Cc1cc(Cc2ccc(Cl)c(Oc3cc(C#N)cc(C#N)c3)c2F)nn(COC(=O)[C@@H]2CCCN2)c1=O.Cl has a documented Cmax of 7.3

In plain terms, Cc1cc(Cc2ccc(Cl)c(Oc3cc(C#N)cc(C#N)c3)c2F)nn(COC(=O)OCCN(C)C)c1=O.Cl has a documented Cmax of 7.3

In plain terms, Cc1cc(Cc2ccc(Cl)c(Oc3cc(C#N)cc(C#N)c3)c2F)nn(COC(=O)[C@@H](N)C(C)C)c1=O.Cl has a documented Cmax of 9.1

In plain terms, Cc1cc(Cc2ccc(Cl)c(Oc3cc(C#N)cc(C#N)c3)c2F)nn(COP(=O)([O-])[O-])c1=O.[Na+].[Na+] has a documented Cmax of 12.7

In plain terms, Cc1cc(Cc2ccc(Cl)c(Oc3cc(C#N)cc(C#N)c3)c2F)nn(COC(=O)OCCN2CCOCC2)c1=O.Cl has a documented Cmax of 5.6

In plain terms, Cc1cc(Cc2ccc(Cl)c(Oc3cc(C#N)cc(C#N)c3)c2F)nn(COC(=O)CCC(=O)O)c1=O has a documented Cmax of 13.2

In plain terms, Cc1cc(Cc2ccc(Cl)c(Oc3cc(C#N)cc(C#N)c3)c2F)nn(COC(=O)c2cccnc2)c1=O.Cl has a documented Cmax of 8.8
